System: HeLa S3
Assay: antiproliferation assay, MTT method
Type: cell-based, human
Details: read-out: IC50 (concentration required for 50% proliferation inhibitory rate)
recorded-endpoint: IC50 (µM)

[[record]]
molecule = "OC[C@H]1O[C@@H](O[C@H]2[C@H]3OC[C@@H]2O[C@@H](O[C@H]2[C@@H](O)[C@@H](CO)O[C@@H](O[C@H]4[C@H]5OC[C@@H]4O[C@@H](O[C@H]4[C@@H](O)[C@@H](CO)O[C@@H](O[C@H]6[C@H]7OC[C@@H]6OC(O)[C@H]7O)[C@@H]4O)[C@H]5O)[C@@H]2O)[C@H]3O)[C@H](O)[C@@H](O)[C@H]1O (mixture of isomers)"
readout_value = 334

[[record]]
molecule = "OC[C@H]1O[C@@H](O[C@H]2[C@H]3OC[C@@H]2OC(O)[C@H]3O)[C@H](O)[C@@H](O)[C@H]1O (mixture of isomers)"
readout_value = 353

[[record]]
molecule = "OC[C@H]1O[C@@H](O[C@H]2[C@H]3OC[C@@H]2O[C@@H](O[C@H]2[C@@H](O)[C@@H](CO)O[C@@H](O[C@H]4[C@H]5OC[C@@H]4OC(O)[C@H]5O)[C@@H]2O)[C@H]3O)[C@H](O)[C@@H](O)[C@H]1O (stereo partly drawn)"
readout_value = 400


----------
System: HepG2
Test: antiproliferation assay, MTT method
Assay type: cell-based, human
Conditions: read-out: IC50 (concentration required for 50% proliferation inhibitory rate)
pIC50: −log10 of the molar value.
recorded-endpoint: pIC50

[[record]]
compound = "OC[C@H]1O[C@@H](O[C@H]2[C@H]3OC[C@@H]2OC(O)[C@H]3O)[C@H](O)[C@@H](O)[C@H]1O (mixture of isomers)"
recorded_endpoint = "pIC50"
readout_value = 3.19

[[record]]
compound = "OC[C@H]1O[C@@H](O[C@H]2[C@H]3OC[C@@H]2O[C@@H](O[C@H]2[C@@H](O)[C@@H](CO)O[C@@H](O[C@H]4[C@H]5OC[C@@H]4O[C@@H](O[C@H]4[C@@H](O)[C@@H](CO)O[C@@H](O[C@H]6[C@H]7OC[C@@H]6OC(O)[C@H]7O)[C@@H]4O)[C@H]5O)[C@@H]2O)[C@H]3O)[C@H](O)[C@@H](O)[C@H]1O (mixture of isomers)"
recorded_endpoint = "pIC50"
readout_value = 3.37

[[record]]
compound = "OC[C@H]1O[C@@H](O[C@H]2[C@H]3OC[C@@H]2O[C@@H](O[C@H]2[C@@H](O)[C@@H](CO)O[C@@H](O[C@H]4[C@H]5OC[C@@H]4OC(O)[C@H]5O)[C@@H]2O)[C@H]3O)[C@H](O)[C@@H](O)[C@H]1O (stereo partly drawn)"
recorded_endpoint = "pIC50"
readout_value = 3.38


----------
Examples of compounds with documented pIC50 follow.
Tested on: WiDr
Experiment: antiproliferation assay, MTT method
Format: cell-based, human
Conditions: read-out: IC50 (concentration required for 50% proliferation inhibitory rate)
Note: pIC50 values are expressed as the negative base-10 logarithm of concentration in M.

[[record]]
compound = "OC[C@H]1O[C@@H](O[C@H]2[C@H]3OC[C@@H]2O[C@@H](O[C@H]2[C@@H](O)[C@@H](CO)O[C@@H](O[C@H]4[C@H]5OC[C@@H]4O[C@@H](O[C@H]4[C@@H](O)[C@@H](CO)O[C@@H](O[C@H]6[C@H]7OC[C@@H]6OC(O)[C@H]7O)[C@@H]4O)[C@H]5O)[C@@H]2O)[C@H]3O)[C@H](O)[C@@H](O)[C@H]1O (mixture of isomers) [Agarohexaose, agarohexaose]"
readout_value = 3.48


Qu. Find the recorded pIC50 belonging to OC[C@H]1O[C@@H](O[C@H]2[C@H]3OC[C@@H]2OC(O)[C@H]3O)[C@H](O)[C@@H](O)[C@H]1O (mixture of isomers) [Agarobiose, agarobiose] and report it.
Ans. 3.39

Qu. Then this compound: OC[C@H]1O[C@@H](O[C@H]2[C@H]3OC[C@@H]2O[C@@H](O[C@H]2[C@@H](O)[C@@H](CO)O[C@@H](O[C@H]4[C@H]5OC[C@@H]4OC(O)[C@H]5O)[C@@H]2O)[C@H]3O)[C@H](O)[C@@H](O)[C@H]1O (stereo partly drawn) [Agarotetraose, agarotetraose]
Ans. 3.40
